90% dissolution (min) of CLCs, antibody 50 uM by entry:
Target: T1, recombinant human galectin-10, TEV-cleaved (human, UniProt Q05315 1-142)
T1 sequence: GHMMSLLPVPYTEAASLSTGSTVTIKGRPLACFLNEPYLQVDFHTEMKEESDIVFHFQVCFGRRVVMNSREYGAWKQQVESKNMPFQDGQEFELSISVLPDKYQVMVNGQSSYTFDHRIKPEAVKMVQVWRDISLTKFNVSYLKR
Assay: cell-based or functional assay
Answer format: numeric, min implied, no suffix.

Known 90% dissolution (min) of CLCs, antibody 50 uM results, listed for orientation:
11F02 mouse IgG1 (antibody, V domains shown, VH and VL cloned in frame with mouse IgG1 constant domains; also called 11F02 mIgG1) VH: ELQVVESGGGLVQPGGSLRLSCAASGFTFSTNYMNWVRQAPGKGLEWVSGITSHGARTYYADSVKGRFTISRDNSKNTLYLQMNSLKPEDTALYYCARTDHASLDAWGQGTLVTVSS VL: QTVVTQEPSLSVSPGGTVTLTCGLSSGSVTSSNYPGWYQQKPGQAPRTLIYNTNSRYSGVPNRFSGSISGNKAALTITGAQPEDEADYYCALYMGSSSYNTVFGGGTHLTVL = 57.5
8H11 mouse IgG1 (antibody, V domains shown, VH and VL cloned in frame with mouse IgG1 constant domains; also called 8H11 mIgG1) VH: ELQLVESGGGLVQPGGSLRLSCAASGFTFSTNYMNWVRQAPGKGLEWVSGITSGGGRTYYADSVKGRFTISRDNAKNTLYLQMNSLKPEDTALYYCARTDHAWLDAWGQGTLVTVSS VL: QAGLTQPPSVSGTLGKTVTISCAGTSSDVGYGNYVSWYQQLPGTAPKLLIYAVSTRASGIPDRFSGSKSGNTASLTISGLLSEDEADYYCASYRSSNNYVFGGGTKLTVL = 43.5

Now let's try a different one.
Give the measured 90% dissolution (min) of CLCs, antibody 50 uM of 10D02 mouse IgG1 (antibody, V domains shown, VH and VL cloned in frame with mouse IgG1 constant domains; also called 10D02 mIgG1) VH: EVQLVESGGGLVQPGGSLRVSCAASGFTFSSYYMSWVRQAPGKGLEWVSGIVTGGGRTHYTDSVKGRFTITRDNAKNTLYLQMNSLRPEDTALYYCARVNGVVTNYDYWGQGTQVTVSS VL: QAVLTQPPSVSGSPGKTVTISCAGTSSDVGYGNYVSWYQQLPGMAPKLLIYDVNKRASGITDRFSGSKSGNTASLTISGLQSEDEADYFCASYRSPNNVVFGQGTHLTVL .
58.6
